The measurements presented in this section are drawn from patent US20050009840A1.

Reported inhibition at 1 pM values for a set of compounds
# System under test: HGFR (Homo sapiens, UniProt P08581)
# Construct: purchased Upstate 14-526
# Sequence (P08581 974-1390 limits assumed): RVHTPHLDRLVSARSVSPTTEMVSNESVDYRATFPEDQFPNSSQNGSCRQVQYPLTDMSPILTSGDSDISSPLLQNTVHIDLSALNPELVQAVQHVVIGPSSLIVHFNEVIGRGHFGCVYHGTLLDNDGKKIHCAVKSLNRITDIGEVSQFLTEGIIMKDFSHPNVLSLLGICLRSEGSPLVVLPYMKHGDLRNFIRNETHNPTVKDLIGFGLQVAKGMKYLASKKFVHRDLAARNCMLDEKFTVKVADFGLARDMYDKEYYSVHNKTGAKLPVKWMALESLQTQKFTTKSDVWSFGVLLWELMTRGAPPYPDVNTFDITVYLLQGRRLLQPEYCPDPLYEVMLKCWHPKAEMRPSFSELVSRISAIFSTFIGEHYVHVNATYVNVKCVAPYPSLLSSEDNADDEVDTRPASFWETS
# Assay details: HGFR continuous-coupled spectrophotometric assay
# Type: biochemical
# Measurement parameters: at 1 pM; Table 7, library procedure 42; read-out: % Inhibition (percent c-MET inhibition)
Lab note: write values as number then unit, every time.

Compound	System under test	inhibition at 1 pM
Nc1ncc(-c2ccc(C(=O)N3CCC(N4CCCC4)CC3)cc2)cc1OCc1ccc2ccccc2c1	HGFR (Homo sapiens, UniProt P08581)	27%
Cn1nc(-c2ccccc2)nc1COc1cc(-c2ccc(C(=O)N3CCC(N4CCCC4)CC3)cc2)cnc1N	HGFR (Homo sapiens, UniProt P08581)	5%
Nc1ncc(-c2ccc(C(=O)N3CCC(N4CCCC4)CC3)cc2)cc1OCc1ccc2ccccc2c1Br	HGFR (Homo sapiens, UniProt P08581)	59%
Nc1ncc(-c2ccc(C(=O)N3CCC(N4CCCC4)CC3)cc2)cc1OCc1ccc(C(F)(F)F)cc1C(F)(F)F	HGFR (Homo sapiens, UniProt P08581)	12%
Cc1ccc(COc2cc(-c3ccc(C(=O)N4CCC(N5CCCC5)CC4)cc3)cnc2N)cc1Cl	HGFR (Homo sapiens, UniProt P08581)	26%

For `Nc1ncc(-c2ccc(C(=O)N3CCC(N4CCCC4)CC3)cc2)cc1OCc1ncccn1` , what is its reported inhibition at 1 pM?
9%

For Nc1ncc(-c2ccc(C(=O)N3CCC(N4CCCC4)CC3)cc2)cc1OCc1ccc(C(=O)N2CCNC(c3ccccc3)C2)cc1 (stereo not shown) , what is its reported inhibition at 1 pM?
12%

For `CCc1nc(COc2cc(-c3ccc(C(=O)N4CCC(N5CCCC5)CC4)cc3)cnc2N)no1` , what is its reported inhibition at 1 pM?
5%

###

Reported IC50 values for a set of molecules
# System under test: Met kinase domain (GST fusion protein) (Homo sapiens, UniProt P08581)
# Construct: Purified GST fusion protein containing the Met kinase domain
# Sequence (P08581 1078-1345 limits assumed): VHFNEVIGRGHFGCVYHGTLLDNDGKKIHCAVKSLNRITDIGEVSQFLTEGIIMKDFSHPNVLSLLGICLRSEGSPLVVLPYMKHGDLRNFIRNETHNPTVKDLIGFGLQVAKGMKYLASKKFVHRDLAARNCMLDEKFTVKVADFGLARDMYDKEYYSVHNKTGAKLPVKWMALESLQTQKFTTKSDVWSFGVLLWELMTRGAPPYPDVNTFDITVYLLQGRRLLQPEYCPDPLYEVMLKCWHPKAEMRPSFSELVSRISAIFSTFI
# Assay details: Met transphosphorylation assay (ELISA, poly(glu-tyr) substrate);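 also: Cell-free ELISA with plate-bound poly(Glu:Tyr 4:1) phosphorylated by GST-fused Met kinase domain plus ATP and Mn2+, phosphotyrosine detected by anti-phosphotyrosine antibody with HRP and ABTS read-out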
# Type: biochemical
# Measurement parameters: read-out: Met IC50

Some solved cases for reference:
Molecule	Readout label	Result
CN(C)[C@H]1CCN(C(=O)c2ccc(-c3cnc(N)c(OCc4c(F)cccc4Cl)c3)cc2)C1	IC50	1700 nM
CC(Oc1cc(-c2ccc(C(=O)N3CCC[C@@H]3CN3CCCC3)cc2)cnc1N)c1ccccc1C(F)(F)F (some centres unmarked)	IC50	330 nM
CC(Oc1nc(-c2ccc(C(=O)N3CCC[C@H]3CN3CCCC3)cc2)cnc1N)c1c(Cl)cccc1Cl (some centres unmarked)	IC50	140 nM
Nc1ncc(-c2cccc(NS(=O)(=O)CCN3CCCCC3)c2)nc1OCc1c(F)ccc(F)c1Cl	IC50	3500 nM
Nc1ncc(Br)nc1OCc1c(F)ccc(F)c1Cl	IC50	> 20000 nM
CC(Oc1nc(-c2cccc(C(=O)N3CC[C@H](N)C3)c2)cnc1N)c1c(Cl)cccc1Cl (some centres unmarked)	IC50	110 nM
CC(=O)N1CCN(C(=O)c2ccc(-c3cnc(N)c(OCc4c(F)cccc4Cl)c3)cc2)CC1	IC50	1450 nM
Nc1ncc(Br)cc1OCc1c(F)ccc(F)c1Cl	IC50	5300 nM

Value wanted: IC50 (Met kinase domain (GST fusion protein) (Homo sapiens, UniProt P08581)) of entry `Nc1ncc(-c2ccc(C(=O)N3CCC[C@H]3CN3CC[C@@H](O)C3)cc2)cc1OCc1c(Cl)cccc1Cl`
530 nM

Value wanted: IC50 (Met kinase domain (GST fusion protein) (Homo sapiens, UniProt P08581)) of entry `Nc1ccc(-c2cnc(N)c(OCc3c(Cl)cccc3Cl)c2)cc1`
606 nM

Value wanted: IC50 (Met kinase domain (GST fusion protein) (Homo sapiens, UniProt P08581)) of entry `N#Cc1ccccc1COc1cc(-c2ccc(O)cc2)cnc1N`
19000 nM

Value wanted: IC50 (Met kinase domain (GST fusion protein) (Homo sapiens, UniProt P08581)) of entry `Nc1ncc(-c2ccc(NS(=O)(=O)CCN3CCCC3)cc2)nc1OCc1c(F)ccc(F)c1Cl`
580 nM

Value wanted: IC50 (Met kinase domain (GST fusion protein) (Homo sapiens, UniProt P08581)) of entry CC(Oc1nc(-c2ccc(C(=O)N3CCC[C@H]3CN3CCCC3)cc2)cnc1N)c1c(Cl)ccc(F)c1Cl (some centres unmarked)
180 nM
